system: A498 renal; experiment: NCI tumour cell line growth inhibition, 384-well format
measurement.name: GI50

• COc1ccc(S(=O)(=O)N2CCNCC2)cc1OC = > 100 µM
• O=C(c1cc(Cc2n[nH]c(=O)c3ccccc23)ccc1F)N1CCN(C(=O)C2CC2)CC1 = > 100 µM
• COCCOCCOCCOCCOC(=O)OC[n+]1ccc(NC(=NCCCCCCOc2ccc(Cl)cc2)NC#N)cc1 = 0.0253 µM
• C[C@H]1CN(C2COC2)CCN1c1ccc(Nc2cc(-c3ccnc(N4CCn5c(cc6c5CC(C)(C)C6)C4=O)c3CO)cn(C)c2=O)nc1 = 14.3 µM
• N#CCNC(=O)c1ccc(-c2ccnc(Nc3ccc(N4CCOCC4)cc3)n2)cc1 = 1.14 µM

Origin of the recorded values: PubChem BioAssay (NCI)
